Every entry's value here was drawn from patent US12344597B2.

Target: human LPA1 receptor (Homo sapiens (Human))
Assay: Beta-arrestin recruitment assay to determine IC50 values for human LPAR1
Details: antagonist mode, Tango EDG2-bla U2OS cells, LPA 18:1 500 nM final
experimental-readout: pIC50
The value called pIC50 is obtained by taking minus log10 of the concentration in mol/L.

Worked examples, 3 molecules total:
molecule	pIC50
Cc1ccc(NC(=O)C2(c3ccccc3C(C)C)CCN(C(=O)CC3(O)COC3)CC2)c(OC(F)F)n1	8.15
Cc1ccc(NC(=O)C2(c3ccccc3C(C)C)CN(C(=O)CC(C)C(=O)O)C2)c(OC(F)F)n1 (stereo not shown)	7.57
Cc1ccc(NC(=O)C2(c3ccccc3C(C)C)CN(CC(C)(C)C(=O)O)C2)c(OC(F)F)n1	7.70

Ask: Provide the documented pIC50 with human LPA1 receptor (Homo sapiens (Human)) as the system for `Cc1ccc(NC(=O)C2(c3ccccc3C(C)C)CN(C(=O)CC3(C(=O)O)COC3)C2)c(OC(F)F)n1`
Reply: 7.59

----------
Recorded pIC50 for the following compounds
Molecular target: human LPA1 receptor (Homo sapiens (Human))
Assay: Beta-arrestin recruitment assay to determine IC50 values for human LPAR1
Conditions: antagonist mode, Tango EDG2-bla U2OS cells, LPA 18:1 500 nM final
The quantity pIC50 is defined as the negative base-10 logarithm of the molar concentration.

Example compounds with recorded pIC50:
compound	target-of-assay	pIC50
COc1cc(Cl)cnc1NC(=O)C1(c2ccccc2C(C)C)CNC1 [Ex 70]	human LPA1 receptor (Homo sapiens (Human))	6.06
Cc1ccc(NC(=O)C2(c3ccccc3C(C)C)CN(C(=O)OC3(C(=O)O)CC3)C2)c(OC(F)F)n1 [Ex 14-8]	human LPA1 receptor (Homo sapiens (Human))	7.85
Cc1ccc(NC(=O)C2(c3ccccc3C3CC3)CNC2)c(OC(F)F)n1 [Ex 23]	human LPA1 receptor (Homo sapiens (Human))	6.18

Okay, now this compound:
Ask: Value lookup for pIC50; key = Cc1ccc(NC(=O)C2(c3ccccc3C(C)C)CN(S(=O)(=O)c3[nH]ncc3C(=O)O)C2)c(OC(F)F)n1 [Ex 13-25]
Reply: 6.40

----------
Target: UniProt:Q92633
Experiment: Beta-arrestin recruitment assay to determine IC50 values for human LPAR1
Settings: antagonist mode, Tango EDG2-bla U2OS cells, LPA 18:1 500 nM final
Recorded IC50, one value per entry.
Report as a plain number; the unit nM is understood.

Example entries begin here.
smiles-text	IC50, nM
Cc1ccc(NC(=O)C2(c3ccccc3C(C)C)CN(C(=O)CNCC(C)(C)C(=O)O)C2)c(OC(F)F)n1	63
COC(=O)CCC(=O)N1CC(C(=O)Nc2ccc(C)nc2OC(C)C)(c2ccccc2C(C)C)C1	75
Cc1ccc(NC(=O)C2(c3ccccc3C(C)C)CN(C(=O)CC(F)(F)C(=O)O)C2)c(OC(F)F)n1	39

Ask: Query (molecule): `Cc1ccc(NC(=O)C2(c3ccccc3C(C)C)CN(C(=O)CCOCC(=O)OCc3ccccc3)C2)c(OC(F)F)n1` ; field requested: IC50
Reply: 20

----------
Biological target: human LPA1 receptor (Homo sapiens (Human), UniProt Q92633)
Sequence (Q92633 whole entry): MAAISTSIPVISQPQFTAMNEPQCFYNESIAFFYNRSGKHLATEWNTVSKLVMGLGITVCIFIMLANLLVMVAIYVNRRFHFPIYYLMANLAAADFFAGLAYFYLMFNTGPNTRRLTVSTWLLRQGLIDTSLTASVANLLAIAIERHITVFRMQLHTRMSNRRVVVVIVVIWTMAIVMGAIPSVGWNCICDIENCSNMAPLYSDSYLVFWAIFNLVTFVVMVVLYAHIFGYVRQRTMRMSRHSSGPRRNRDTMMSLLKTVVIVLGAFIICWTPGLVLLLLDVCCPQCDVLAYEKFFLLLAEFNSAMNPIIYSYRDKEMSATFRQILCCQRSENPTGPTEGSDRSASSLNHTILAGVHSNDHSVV
Test: Beta-arrestin recruitment assay to determine IC50 values for human LPAR1
Conditions: antagonist mode, Tango EDG2-bla U2OS cells, LPA 18:1 500 nM final
experimental-readout: pIC50
Give only the number. pIC50 is defined as minus log10 of concentration in molar units.

smiles-text	pIC50
CNS(=O)(=O)CC(=O)N1CC(C(=O)Nc2ccc(C)nc2OC(F)F)(c2ccccc2C(C)C)C1	7.89
Cc1ccc(NC(=O)C2(c3ccccc3C(C)C)CN(C(=O)C(C)(C)CC(=O)O)C2)c(OC(F)F)n1	8.30

Ask: Please look up its pIC50: `Cc1ccc(NC(=O)C2(c3ccccc3C(C)C)CN(CCCC(C)(C)O)C2)c(OC(F)F)n1`
Reply: 7.85

Ask: Dear colleague, I am looking for the recorded pIC50 of the following molecule: `COC(=O)c1cc(CN2CC(C(=O)Nc3ccc(C)nc3OC(F)F)(c3ccccc3C(C)C)C2)ccn1`
Reply: 7.33

Ask: Given `CC(=O)N1CC(C(=O)Nc2ccc(C)nc2OC(F)F)(c2ccccc2C(C)C)C1` , state its recorded pIC50.
Reply: 8.00

Ask: Look up pIC50 for this molecule: `COc1nc(Cl)ccc1NC(=O)C1(c2ccccc2C(C)C)CNC1`
Reply: 6.23

Ask: I have this molecule here, `Cc1ccc(NC(=O)C2(c3ccccc3C(C)C)CN(CC3COC3)C2)c(OC(F)F)n1` , and I need its recorded pIC50.
Reply: 7.54

Ask: pIC50 lookup needed for `Cc1ccc(NC(=O)C2(c3ccccc3C(C)C)CN(Cc3coc(C)n3)C2)c(OC(F)F)n1` , thanks.
Reply: 7.22

----------
Entries and their IC50 values follow.
Biological target: UniProt Q92633
Test: Beta-arrestin recruitment assay to determine IC50 values for human LPAR1
Conditions: antagonist mode, Tango EDG2-bla U2OS cells, LPA 18:1 500 nM final
Method: Beta-Arrestin Recruitment Assay to Determine IC50 Values for Human LPAR1 The Tango™ EDG2-bla U2OS cells are obtained from Invitrogen. […] Upon LPA (agonist) binding, LPA1 receptor gets activated, leading to arrestin-protease recruitment and proteolytic release of the transcription factor: The transcription factor then regulates transcription of a beta-lactamase reporter construct, which is measured upon addition of the live-cell substrate. […]
Reply numerically in nM, unit not repeated.

Reference set, count: 5
smiles-text	IC50, nM
Cc1ccc(NC(=O)C2(c3ccccc3C(C)C)CN(CC(N)=O)C2)c(OC(F)F)n1	22
COc1ccc(C(C)C)c(C2(C(=O)Nc3ccc(C)nc3OC(F)F)CNC2)c1	287
Cc1ccc(NC(=O)C2(c3ccccc3C(C)C)CN(CCC3(C(=O)O)CCC3)C2)c(OC(F)F)n1	46
Cc1ccc(NC(=O)C2(c3ccccc3C(C)C)CN(c3ccc(C#N)cn3)C2)c(OC(F)F)n1	1
Cc1ccc(NC(=O)C2(c3ccccc3C(C)C)CN(Cc3cnc(C(=O)O)cn3)C2)c(OC(F)F)n1	142

Ask: Request the reported IC50 associated with `Cc1ccc(NC(=O)C2(c3ccccc3C(C)C)CN(Cc3ccc(C(=O)O)[nH]3)C2)c(OC(F)F)n1`
Reply: 5

Ask: May I ask what IC50 has been recorded for `Cc1ccc(NC(=O)C2(c3ccccc3C(C)C)CN(C(=O)CCC(=O)O)C2)c(OC(C)C)n1` ?
Reply: 33

Ask: Could you share which IC50 value was measured for `Cc1ccc(NC(=O)C2(c3ccccc3C(C)C)CN(C(=O)C(F)(F)CC(=O)O)C2)c(OC(F)F)n1` ?
Reply: 7

----------
Molecular target: human LPA1 receptor (Homo sapiens (Human), UniProt Q92633)
Assay: Beta-arrestin recruitment assay to determine IC50 values for human LPAR1
Settings: antagonist mode, Tango EDG2-bla U2OS cells, LPA 18:1 500 nM final
Protocol: Beta-Arrestin Recruitment Assay to Determine IC50 Values for Human LPAR1 The Tango™ EDG2-bla U2OS cells are obtained from Invitrogen. […] Upon LPA (agonist) binding, LPA1 receptor gets activated, leading to arrestin-protease recruitment and proteolytic release of the transcription factor: The transcription factor then regulates transcription of a beta-lactamase reporter construct, which is measured upon addition of the live-cell substrate. […]
experimental-readout: pIC50
Quick note: pIC50 values are minus log10 of concentrations in mol/L.

// worked examples, pIC50 included
smiles-text	pIC50
COC(=O)CCS(=O)(=O)N1CCC(C(=O)Nc2ccc(C)nc2OC(F)F)(c2ccccc2C(C)C)CC1	7.59
CC(=O)N(O)CC(=O)N1CC(C(=O)Nc2ccc(C)nc2OC(F)F)(c2ccccc2C(C)C)C1	8.05
Cc1ccc(NC(=O)C2(c3ccccc3C(C)C)CN(C(=O)N3CCN(C)CC3)C2)c(OC(F)F)n1	6.62
Cc1ccc(NC(=O)C2(c3ccccc3C(C)C)CN(C(=O)[C@H](O)[C@@H](O)C(=O)O)C2)c(OC(F)F)n1	7.52
CCOC(=O)CC1(S(=O)(=O)N2CC(C(=O)Nc3ccc(C)nc3OC(F)F)(c3ccccc3C(C)C)C2)CC1	5.76
COc1cc(Br)cnc1NC(=O)C1(c2ccccc2C(C)C)CN(S(N)(=O)=O)C1	7.89

Ask: Report pIC50 for `Cc1ccc(NC(=O)C2(c3ccccc3C(C)C)CN(C(=O)CNC(N)=O)C2)c(OC(F)F)n1` please.
Reply: 6.81

----------
Target: human LPA1 receptor (Homo sapiens (Human), UniProt Q92633)
Test: Beta-arrestin recruitment assay to determine IC50 values for human LPAR1
Type: cell-based
Conditions: antagonist mode, Tango EDG2-bla U2OS cells, LPA 18:1 500 nM final
experimental-readout: log10 IC50 (log10 of the value in nM)
Parameter value (number): base-10 log of IC50 in nM.

Below are worked cases with known answers.
molecule	experimental-readout	value-observed
Cc1ccc(NC(=O)C2(c3ccccc3C(C)C)CN(CC3(C(=O)O)CC3)C2)c(OC(F)F)n1 [Ex 11-27]	log10 IC50	1.58
CCOC(=O)C1(C(=O)N2CC(C(=O)Nc3ccc(C)nc3OC(F)F)(c3ccccc3C(C)C)C2)CNC1 [Ex 12-113]	log10 IC50	1.72
Cc1ccc(NC(=O)C2(c3ccccc3C(C)C)CN(Cc3cnn(C)c3)C2)c(OC(F)F)n1 [Ex 11-23]	log10 IC50	2.89
COC(=O)Cn1cccc1CN1CC(C(=O)Nc2ccc(C)nc2OC(F)F)(c2ccccc2C(C)C)C1 [Ex 11-41]	log10 IC50	1.83
COC(=O)C(C)(C)CC(=O)N1CC(C(=O)Nc2ncc(Br)cc2OC(F)F)(c2ccccc2C(C)C)C1 [Ex 79-1]	log10 IC50	1.81
Cc1ccc(NC(=O)C2(c3ccccc3C(C)C)CCN(S(=O)(=O)CC(=O)O)CC2)c(OC(F)F)n1 [Ex 13-3]	log10 IC50	1.15

Turning now to a further molecule:
Ask: If you can, please state the reported log10 IC50 value of Cc1ccc(NC(=O)C2(c3ccccc3C(C)C)CN(C(=O)C[C@H]3COCCN3)C2)c(OC(F)F)n1 [Ex 12-44] .
Reply: 1.90
